test: Quantitative High-Throughput drug screen in 47 multiple myeloma cell lines against the NCATS MIPE library collection: AMO1_DSMZ cell viability assay (AID 1918927; further: potency means the concentration at half of the fitted maximal effect; nearly all actives have a fitted effect of over 30% in size); details: AMO1 myeloma cells viability, CellTiter-Glo ATP luminescence, 48 h; series mostly up to 45.8 µM
Results filed as inconclusive are left out. Calls of active or inactive are those of the source. The call rests on the fitted dose curve; in most records, active means well fitted cell-killing curve with a large enough effect; inconclusive means small, poorly fitted or top-dose-only effect, or effect the other way; inactive means no such curve, though single readings can be large or run the other way.
QUANTITY: Potency

>>> experimental_result("CNC(=O)c1cc(Oc2ccc(NC(=O)Nc3ccc(Cl)c(C(F)(F)F)c3)c(F)c2)ccn1")
"5.9 µM (active)"
>>> experimental_result("CN[C@@H]1CN(c2ccc3c(=O)c(C(=O)O)cn(-c4nccs4)c3n2)C[C@@H]1OC")
"0.812 µM (active)"
>>> experimental_result("Nc1ncnc2c1c(-c1cccc(OCc3ccccc3)c1)cn2C1CC(CN2CCC2)C1 (configuration not stated)")
"14.8 µM (active)"
>>> experimental_result("C[C@@H](NC(=O)c1ncnc(N)c1Cl)c1ncc(C(=O)Nc2cc(C(F)(F)F)c(Cl)cn2)s1")
"10.5 µM (active)"
>>> experimental_result("COc1c(C)c2c(c(O)c1CC=C(C)CCC(=O)OCCN1CCOCC1)C(=O)OC2")
"0.372 µM (active)"
>>> experimental_result("OC1CCC(Nc2ncc3nc(Nc4c(F)cc(F)cc4F)n([C@@H]4CCOC4)c3n2)CC1 (some centres not stated)")
"16.6 µM (active)"
>>> experimental_result("CC(=O)N1CCN(c2ccc(OCc3nn(C)c(C)c3-c3cccc4c(CCCOc5cc(C)c(Cl)c(C)c5)c(C(=O)O)n(Cc5cccnc5)c34)cc2)CC1")
"6.62 µM (active)"
